Molecular target: UDP-3-O-acyl-N-acetylglucosamine deacetylase (Escherichia coli K-12)
Sequence (P0A725 whole entry): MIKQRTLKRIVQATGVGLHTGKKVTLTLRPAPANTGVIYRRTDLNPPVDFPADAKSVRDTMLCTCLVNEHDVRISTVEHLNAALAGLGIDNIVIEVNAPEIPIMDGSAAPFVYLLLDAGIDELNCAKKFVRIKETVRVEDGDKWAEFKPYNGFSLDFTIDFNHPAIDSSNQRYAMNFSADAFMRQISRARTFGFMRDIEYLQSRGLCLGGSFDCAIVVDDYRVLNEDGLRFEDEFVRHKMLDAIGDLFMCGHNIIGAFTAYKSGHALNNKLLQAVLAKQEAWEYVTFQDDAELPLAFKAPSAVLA
recorded-endpoint: IC50 (nM)

- mol: "C[C@@H](O)[C@H](C(=O)NO)N1Cc2cc(-c3ccc(C#Cc4ccccc4)cc3)ccc2C1=O"
  obs-value: 29
- mol: "C[C@@H](O)[C@@H](NC(=O)N1CCC(c2ccc(-c3ccccc3)cc2)CC1)C(=O)NO"
  obs-value: 13.8
- mol: "C[C@@H](O)[C@@H](NC(=O)N1CCN(c2ccc(C#Cc3ccc(N4CCNCC4)cc3)cc2)CC1)C(=O)NO"
  obs-value: 23.3
- mol: "CC(C)(O)[C@@H](NC(=O)N1CCN(c2ccc(-c3ccccc3)cc2)CC1)C(=O)NO"
  obs-value: 7

====

test system: Proteus vulgaris; experiment: Antimicrobial activity against wild type Proteus vulgaris by broth dilution assay; assay type: functional
recorded-endpoint: MIC

- mol: "C[C@@H](O)[C@@H](NC(=O)c1ccc(C#Cc2ccccc2)cc1)C(=O)NO"
  obs-value: "1.25 µg/mL"
- mol: "C[C@@H](N)[C@@H](NC(=O)N1CCN(c2ccc(C#Cc3ccccc3)cc2)CC1)C(=O)NO"
  obs-value: "6.25 µg/mL"
- mol: "C[C@@H](O)[C@@H](NC(=O)N1CCC(c2ccc(-c3ccccc3)cc2)CC1)C(=O)NO"
  obs-value: "3.13 µg/mL"
- mol: "CC(C)(O)[C@@H](NC(=O)N1CCN(c2ccc(C#Cc3ccccc3)cc2)CC1)C(=O)NO"
  obs-value: "3.13 µg/mL"

====

target: UDP-3-O-acyl-N-acetylglucosamine deacetylase (Escherichia coli K-12, UniProt P0A725)
recorded-endpoint: IC50 (nM)

- mol: "C[C@@H](O)[C@@H](NC(=O)N1CCN(c2ccc(C#Cc3cnccn3)cc2)CC1)C(=O)NO"
  recorded-endpoint: "IC50"
  obs-value: 136
- mol: "C[C@@H](O)[C@@H](NC(=O)N1CCN(c2ccc(C#Cc3ccncc3)cc2)CC1)C(=O)NO"
  recorded-endpoint: "IC50"
  obs-value: 4
- mol: "C[C@@H](O)[C@@H](NC(=O)N1CCN(c2ccc(C#Cc3ccc(N)cc3)cc2)CC1)C(=O)NO"
  recorded-endpoint: "IC50"
  obs-value: 26
- mol: "C[C@@H](O)[C@@H](NC(=O)N1CCN(c2ccc(C#Cc3ccc(Cl)cc3)cc2)CC1)C(=O)NO"
  recorded-endpoint: "IC50"
  obs-value: 5
- mol: "C[C@@H](O)[C@H](C(=O)NO)N1Cc2ccc(C#Cc3ccccc3)cc2C1=O"
  recorded-endpoint: "IC50"
  obs-value: 34000
- mol: "CC(C)(O)[C@@H](NC(=O)N1CCC(c2ccc(-c3ccccc3)cc2)CC1)C(=O)NO"
  recorded-endpoint: "IC50"
  obs-value: 2.5
- mol: "C[C@@H](O)[C@H](C(=O)NO)N1Cc2cc(C#Cc3cccc(-c4ccccc4)c3)ccc2C1=O"
  recorded-endpoint: "IC50"
  obs-value: 971
- mol: "C[C@@H](O)[C@@H](NC(=O)N1CCN(c2ccc(C#Cc3cccs3)cc2)CC1)C(=O)NO"
  recorded-endpoint: "IC50"
  obs-value: 21
- mol: "C[C@@H](O)[C@@H](NC(=O)N1CCN(c2ccc(C#Cc3ccc(N4CCOCC4)cc3)cc2)CC1)C(=O)NO"
  recorded-endpoint: "IC50"
  obs-value: 3

====

log10 MIC values for the compounds below.
test system: Pseudomonas aeruginosa; assay: Antimicrobial activity against multidrug-resistant Pseudomonas aeruginosa by broth dilution assay; type: functional
recorded-endpoint: log10 MIC (log10 of the value in mg/L)

- mol: "C[C@@H](O)[C@@H](NC(=O)c1ccc(C#Cc2ccccc2)cc1)C(=O)NO"
  test-target: "Pseudomonas aeruginosa"
  obs-value: -0.20
- mol: "CC[C@H]1OC(=O)[C@H](C)[C@@H](O[C@H]2C[C@@](C)(OC)[C@@H](O)[C@H](C)O2)[C@H](C)[C@@H](O[C@@H]2O[C@H](C)C[C@H](N(C)C)[C@H]2O)[C@](C)(O)C[C@@H](C)CN(C)[C@H](C)[C@@H](O)[C@]1(C)O"
  test-target: "Pseudomonas aeruginosa"
  obs-value: 1.51
- mol: "CN(C)[C@@H]1C(O)=C(C(N)=O)C(=O)[C@@]2(O)C(O)=C3C(=O)c4c(O)cccc4[C@@](C)(O)[C@H]3C[C@@H]12"
  test-target: "Pseudomonas aeruginosa"
  obs-value: 1.20
- mol: "C[C@@H](N)[C@@H](NC(=O)N1CCN(c2ccc(C#Cc3ccccc3)cc2)CC1)C(=O)NO"
  test-target: "Pseudomonas aeruginosa"
  obs-value: 0.50
- mol: "CC(C)(O)[C@@H](NC(=O)N1CCN(c2ccc(C#Cc3ccccc3)cc2)CC1)C(=O)NO"
  test-target: "Pseudomonas aeruginosa"
  obs-value: 0.80

====

Target: UDP-3-O-acyl-N-acetylglucosamine deacetylase (Escherichia coli K-12)
Sequence (P0A725 whole entry): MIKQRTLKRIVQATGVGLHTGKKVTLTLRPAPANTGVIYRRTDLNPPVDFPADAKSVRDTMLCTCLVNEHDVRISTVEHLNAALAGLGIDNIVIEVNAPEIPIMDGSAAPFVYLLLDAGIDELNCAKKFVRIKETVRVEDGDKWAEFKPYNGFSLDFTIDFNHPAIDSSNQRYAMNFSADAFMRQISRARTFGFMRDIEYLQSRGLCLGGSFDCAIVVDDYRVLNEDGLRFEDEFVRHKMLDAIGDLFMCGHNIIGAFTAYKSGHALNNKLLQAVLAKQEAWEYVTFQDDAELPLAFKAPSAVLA
Test: Inhibition of Escherichia coli LpxC
log10 IC50 values for the compounds below.
recorded-endpoint: log10 IC50 (log10 of the value in nM)

- mol: "C[C@@H](O)[C@@H](NC(=O)N1CCN(c2ccc(C#Cc3ccccn3)cc2)CC1)C(=O)NO"
  log10 IC50: 1.00
- mol: "C[C@@H](O)[C@H](C(=O)NO)N1Cc2cc(C#Cc3ccccc3)ccc2C1=O"
  log10 IC50: 2.11
- mol: "C[C@@H](O)[C@@H](NC(=O)N1CCC(c2ccccc2)CC1)C(=O)NO"
  log10 IC50: 3.60
- mol: "C[C@@H](O)[C@@H](NC(=O)NCc1ccc(C#Cc2ccccc2)cc1)C(=O)NO"
  log10 IC50: 2.30
- mol: "C[C@@H](O)[C@H](C(=O)NO)n1[nH]c2cc(C#Cc3ccccc3)ccc2c1=O"
  log10 IC50: 2.30

====

test system: Stenotrophomonas maltophilia; experiment: Antimicrobial activity against wild type Stenotrophomonas maltophilia by broth dilution assay; assay type: functional
MIC values for the molecules below.

- mol: "CC(C)(O)[C@@H](NC(=O)N1CCN(c2ccc(C#Cc3ccccc3)cc2)CC1)C(=O)NO"
  test-target: "Stenotrophomonas maltophilia"
  measurement-qualifier: "="
  MIC (µg/mL): 25
- mol: "C[C@@H](O)[C@@H](NC(=O)c1ccc(C#Cc2ccccc2)cc1)C(=O)NO"
  test-target: "Stenotrophomonas maltophilia"
  measurement-qualifier: "="
  MIC (µg/mL): 5
- mol: "C[C@@H](O)[C@@H](NC(=O)N1CCC(c2ccc(-c3ccccc3)cc2)CC1)C(=O)NO"
  test-target: "Stenotrophomonas maltophilia"
  measurement-qualifier: ">"
  MIC (µg/mL): 100
- mol: "CC1(C)S[C@@H]2[C@H](NC(=O)[C@H](N)c3ccccc3)C(=O)N2[C@H]1C(=O)O"
  test-target: "Stenotrophomonas maltophilia"
  measurement-qualifier: ">"
  MIC (µg/mL): 32
- mol: "C[C@@H](N)[C@@H](NC(=O)N1CCN(c2ccc(C#Cc3ccccc3)cc2)CC1)C(=O)NO"
  test-target: "Stenotrophomonas maltophilia"
  measurement-qualifier: ">"
  MIC (µg/mL): 50
- mol: "O=C(O)c1cn(C2CC2)c2cc(N3CCNCC3)c(F)cc2c1=O"
  test-target: "Stenotrophomonas maltophilia"
  measurement-qualifier: "="
  MIC (µg/mL): 0.016

====

system: Escherichia coli; experiment: Antimicrobial activity against multidrug-resistant Escherichia coli by broth dilution assay; format: functional

- mol: "C[C@@H](O)[C@@H](NC(=O)N1CCC(c2ccc(-c3ccccc3)cc2)CC1)C(=O)NO"
  test-target: "Escherichia coli"
  measurement-qualifier: "="
  MIC / µg/mL: 3.13
- mol: "CC[C@H]1OC(=O)[C@H](C)[C@@H](O[C@H]2C[C@@](C)(OC)[C@@H](O)[C@H](C)O2)[C@H](C)[C@@H](O[C@@H]2O[C@H](C)C[C@H](N(C)C)[C@H]2O)[C@](C)(O)C[C@@H](C)CN(C)[C@H](C)[C@@H](O)[C@]1(C)O"
  test-target: "Escherichia coli"
  measurement-qualifier: "="
  MIC / µg/mL: 32
- mol: "O=C(O)c1cn(C2CC2)c2cc(N3CCNCC3)c(F)cc2c1=O"
  test-target: "Escherichia coli"
  measurement-qualifier: ">"
  MIC / µg/mL: 32
- mol: "O=C(N[C@H](CO)[C@H](O)c1ccc([N+](=O)[O-])cc1)C(Cl)Cl"
  test-target: "Escherichia coli"
  measurement-qualifier: ">"
  MIC / µg/mL: 32
- mol: "C[C@@H](O)[C@@H](NC(=O)c1ccc(C#Cc2ccccc2)cc1)C(=O)NO"
  test-target: "Escherichia coli"
  measurement-qualifier: "="
  MIC / µg/mL: 0.63
- mol: "C[C@@H](N)[C@@H](NC(=O)N1CCN(c2ccc(C#Cc3ccccc3)cc2)CC1)C(=O)NO"
  test-target: "Escherichia coli"
  measurement-qualifier: "="
  MIC / µg/mL: 3.13
- mol: "CC(C)(O)[C@@H](NC(=O)N1CCN(c2ccc(C#Cc3ccccc3)cc2)CC1)C(=O)NO"
  test-target: "Escherichia coli"
  measurement-qualifier: "="
  MIC / µg/mL: 1.56
- mol: "CN(C)[C@@H]1C(O)=C(C(N)=O)C(=O)[C@@]2(O)C(O)=C3C(=O)c4c(O)cccc4[C@@](C)(O)[C@H]3C[C@@H]12"
  test-target: "Escherichia coli"
  measurement-qualifier: ">"
  MIC / µg/mL: 2
- mol: "CC1(C)S[C@@H]2[C@H](NC(=O)[C@H](N)c3ccccc3)C(=O)N2[C@H]1C(=O)O"
  test-target: "Escherichia coli"
  measurement-qualifier: ">"
  MIC / µg/mL: 8
